Provenance of the data: paper PMC11876601

# System: p-sites in DNA-damaged AsPC-1 cells
# assay_name: decryptM dose-resolved phosphoproteomics of ATRi in GEM-pre-treated cells
# Type: cell-based, human
# condition_notes: CHEK1-pS317
Property: Log2 PTM response (GEM+ATRi vs. GEM); scope: individual molecules
Answer with the value's number alone.

Use the examples below as a reference point.
C[C@@H]1COCCN1c1cc(C2([S@](C)(=N)=O)CC2)nc(-c2cc[nH]c3nccc2-3)n1 = -2
C[C@@H]1COCCN1c1cc(-c2ccnn2C)c2ccnc(-c3ccn[nH]3)c2n1 = -1.9
CNCc1ccc(-c2cc(-c3nc(-c4ccc(S(=O)(=O)C(C)C)cc4)cnc3N)on2)cc1 = -2.8

Next up:
Asked: Return reported Log2 PTM response (GEM+ATRi vs. GEM); argument: "Nc1nn2cc(F)cnc2c1C(=O)Nc1cncc(F)c1N1CCC(C(=O)N2CCN(C3COC3)CC2)CC1"
Given back: -2.3

---

# System: AsPC-1 cells
# assay_name: Cell proliferation assay, chemodrug + ATR inhibitor (Incucyte confluence, 72 h);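 also: underlying read-out for every value is AsPC-1 confluence after 72 h incubation at 37 °C and 5% CO2, divided by that well's starting confluence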
# condition_notes: Homo sapiens, ASPC1, 72 h, AsPC1; Experiment GEM (Gemcitabine alone) in the Berzosertib series; single replicates R1-R3
measurement_label: pEC50
Scale explanation: pEC50 corresponds to minus log10 of a concentration expressed in moles per litre.

Asked: Under AsPC-1 cells: pEC50 value of "Nc1ccn([C@@H]2O[C@H](CO)[C@@H](O)C2(F)F)c(=O)n1" ?
Given back: 7.46

---

# Tested on: MiaPaCa-2
# assay_name: cells
# Parameters: ATPlite luminescence viability of PDAC cell lines, 11-dose single-agent curves, 4-parameter fit
# condition_notes: Homo sapiens, MIA PaCa-2, 72 h, read-out: EC50 [nM]
# Description: Afterward, small amounts were transferred to 384-well intermediate plates (Greiner Bio-One GmbH, Germany). […] Next, we analyzed the drug sensitivity of immortalized duct cell line HPDE to detect effects unrelated to pancreatic cancer.
measurement_label: EC50

Use the examples below as a reference point.
CC1(C)CC=C(c2nc(C3CC(C)(C)OC(C)(C)C3)ccc2NC(=O)c2nc(C#N)c[nH]2)CC1 = 3040 nM
O=C1CCc2c(Oc3ccc4c(c3)[C@@H]3[C@H](O4)[C@H]3c3nc4cc(C(F)(F)F)ccc4[nH]3)ccnc2N1 = 2650 nM
CNC(=O)c1ccc(Nc2ncc(C(F)(F)F)c(NCc3nccnc3N(C)S(C)(=O)=O)n2)cc1 = 4660 nM
CN1CCC(COc2cnc(-c3cccc(Cn4nc(-c5cccc(C#N)c5)ccc4=O)c3)nc2)CC1 = 7010 nM

Asked: Under MiaPaCa-2: EC50 value of "Cc1nc(Nc2ncc(C(=O)Nc3c(C)cccc3Cl)s2)cc(N2CCN(CCO)CC2)n1" ?
Given back: 4.67 nM

Asked: Under MiaPaCa-2: EC50 value of "Cc1cnc(Nc2ccc(OCCN3CCCC3)cc2)nc1Nc1cccc(S(=O)(=O)NC(C)(C)C)c1" ?
Given back: 400 nM

Asked: Under MiaPaCa-2: EC50 value of "CC(C)NC(=O)[C@H]1CC[C@@H](n2/c(=N/C(=O)c3ccc(F)cc3)[nH]c3ccc(CN4CCC(C(C)(C)O)CC4)cc32)CC1" ?
Given back: 308 nM

Asked: Under MiaPaCa-2: EC50 value of "Cn1cnc2c(F)c(Nc3ccc(Br)cc3Cl)c(C(=O)NOCCO)cc21" ?
Given back: 24.1 nM

Asked: Under MiaPaCa-2: EC50 value of "CC(=O)c1c(C)c2cnc(Nc3ccc(N4CCNCC4)cn3)nc2n(C2CCCC2)c1=O" ?
Given back: > 10000 nM

Asked: Under MiaPaCa-2: EC50 value of O=C(/C=C\n1cnc(-c2cc(C(F)(F)F)cc(C(F)(F)F)c2)n1)NNc1cnccn1 [Selinexor] ?
Given back: 190 nM

---

Property: EC50; scope: individual compounds
# System: PANC-1 cells
# assay_name: Cell proliferation assay, GEM + ATR inhibitor (Incucyte confluence, 72 h);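 also: PANC-1 confluence at 72 h taken as raw values, not normalized to starting confluence, with each experiment run in triplicate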;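 also: in combination experiments GEM is titrated while ATRi is held at a fixed sub-EC50 dose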
# condition_notes: Homo sapiens, PANC-1, 72 h, read-out: EC50 mean [nM], PANC-1; experiment ATRi (ATR inhibitor alone); mean of replicates

Asked: Return reported EC50; argument: "CNCc1ccc(-c2cc(-c3nc(-c4ccc(S(=O)(=O)C(C)C)cc4)cnc3N)on2)cc1"
Given back: 22200 nM

Asked: Return reported EC50; argument: "Nc1nn2cc(F)cnc2c1C(=O)Nc1cncc(F)c1N1CCC(C(=O)N2CCN(C3COC3)CC2)CC1"
Given back: 7880 nM

Asked: Return reported EC50; argument: "C[C@@H]1COCCN1c1cc(C2([S@](C)(=N)=O)CC2)nc(-c2cc[nH]c3nccc2-3)n1"
Given back: 10500 nM

---

# measured_on: PIK3C3 ; Q8NEB9 (Homo sapiens, UniProt Q8NEB9)
# Sequence (Q8NEB9 whole entry): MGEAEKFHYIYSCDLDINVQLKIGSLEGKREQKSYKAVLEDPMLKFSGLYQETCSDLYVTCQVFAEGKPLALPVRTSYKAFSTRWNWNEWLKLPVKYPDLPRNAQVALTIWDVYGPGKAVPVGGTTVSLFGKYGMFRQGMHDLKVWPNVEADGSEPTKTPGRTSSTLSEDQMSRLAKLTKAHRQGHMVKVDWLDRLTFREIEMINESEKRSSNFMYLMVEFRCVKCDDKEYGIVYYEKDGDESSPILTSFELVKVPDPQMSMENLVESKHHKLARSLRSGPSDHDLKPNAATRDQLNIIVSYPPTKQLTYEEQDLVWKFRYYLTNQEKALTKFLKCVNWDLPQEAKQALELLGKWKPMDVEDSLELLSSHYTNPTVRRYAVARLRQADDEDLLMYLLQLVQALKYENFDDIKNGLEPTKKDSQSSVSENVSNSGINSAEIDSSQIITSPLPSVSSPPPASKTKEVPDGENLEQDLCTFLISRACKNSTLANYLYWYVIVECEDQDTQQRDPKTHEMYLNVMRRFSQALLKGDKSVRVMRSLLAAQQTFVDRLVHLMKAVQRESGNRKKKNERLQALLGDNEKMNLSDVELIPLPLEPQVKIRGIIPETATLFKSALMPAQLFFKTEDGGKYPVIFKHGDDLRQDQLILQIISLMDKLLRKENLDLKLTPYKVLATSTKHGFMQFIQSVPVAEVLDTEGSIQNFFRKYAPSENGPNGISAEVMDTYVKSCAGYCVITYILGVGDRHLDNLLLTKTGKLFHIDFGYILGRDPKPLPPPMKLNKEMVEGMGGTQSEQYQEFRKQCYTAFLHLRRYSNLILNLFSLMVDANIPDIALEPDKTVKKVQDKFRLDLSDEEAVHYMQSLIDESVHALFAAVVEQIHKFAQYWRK
# assay_name: biochemical
# Set-up: species or system AsPC-1; Kinobeads competition pulldown in AsPC-1 lysate with LC-MS/MS label-free quantification; apparent Kd
measurement_label: pKd
Scale explanation: pKd corresponds to minus log10 of a concentration expressed in moles per litre.

Asked: Return reported pKd; argument: "CNCc1ccc(-c2cc(-c3nc(-c4ccc(S(=O)(=O)C(C)C)cc4)cnc3N)on2)cc1"
Given back: 8.04

---

# measured_on: BMP2K (Homo sapiens, UniProt Q9NSY1)
# Construct: endogenous in cells
# Sequence (Q9NSY1 whole entry): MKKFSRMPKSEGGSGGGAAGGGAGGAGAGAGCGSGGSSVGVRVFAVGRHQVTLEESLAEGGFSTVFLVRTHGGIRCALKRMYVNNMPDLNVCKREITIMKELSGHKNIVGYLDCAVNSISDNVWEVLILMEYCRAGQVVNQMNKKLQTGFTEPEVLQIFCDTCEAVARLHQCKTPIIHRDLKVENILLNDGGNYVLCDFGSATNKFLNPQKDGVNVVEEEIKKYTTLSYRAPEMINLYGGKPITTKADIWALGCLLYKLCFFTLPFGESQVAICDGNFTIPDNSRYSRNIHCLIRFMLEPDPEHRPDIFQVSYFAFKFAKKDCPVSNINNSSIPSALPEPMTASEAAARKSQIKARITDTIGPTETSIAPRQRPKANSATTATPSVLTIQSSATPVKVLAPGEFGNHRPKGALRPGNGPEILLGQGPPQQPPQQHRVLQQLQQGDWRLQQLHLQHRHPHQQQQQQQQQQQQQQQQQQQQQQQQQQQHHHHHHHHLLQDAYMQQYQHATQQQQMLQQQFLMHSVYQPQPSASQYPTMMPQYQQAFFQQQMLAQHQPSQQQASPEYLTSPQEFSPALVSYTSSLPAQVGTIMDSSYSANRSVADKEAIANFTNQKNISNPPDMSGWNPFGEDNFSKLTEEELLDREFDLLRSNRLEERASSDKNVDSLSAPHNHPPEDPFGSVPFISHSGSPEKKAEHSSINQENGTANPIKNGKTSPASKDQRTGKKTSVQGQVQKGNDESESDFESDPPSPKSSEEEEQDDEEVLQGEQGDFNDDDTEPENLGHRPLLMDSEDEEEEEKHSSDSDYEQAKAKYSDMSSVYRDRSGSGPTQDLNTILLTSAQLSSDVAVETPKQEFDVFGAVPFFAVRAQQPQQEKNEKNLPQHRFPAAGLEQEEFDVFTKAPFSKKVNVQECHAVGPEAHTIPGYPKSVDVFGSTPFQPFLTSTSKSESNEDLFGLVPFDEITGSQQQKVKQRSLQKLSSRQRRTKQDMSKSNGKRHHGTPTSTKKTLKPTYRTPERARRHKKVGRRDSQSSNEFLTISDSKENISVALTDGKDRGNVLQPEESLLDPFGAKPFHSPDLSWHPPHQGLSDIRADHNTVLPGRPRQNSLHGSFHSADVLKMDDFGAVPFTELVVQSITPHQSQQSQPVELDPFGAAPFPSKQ
# assay_name: Kinobeads competition pulldown in AsPC-1 lysate
# condition_notes: Kinobeads residual binding curve
measurement_label: EC50 (nM)
Form entry: value (nM) — number only.

Asked: Return reported EC50; argument: "CNCc1ccc(-c2cc(-c3nc(-c4ccc(S(=O)(=O)C(C)C)cc4)cnc3N)on2)cc1"
Given back: 35.7

---

# Tested on: p-sites in DNA-damaged AsPC-1 cells
# assay_name: decryptM dose-resolved phosphoproteomics of ATRi in GEM-pre-treated cells
# Assay type: cell-based, human
# condition_notes: Homo sapiens, ASPC1; p-site dose-response in GEM-pre-treated cells; read-out: EC50, RALY S176
# Experimental: Cell culture medium was replaced 24 h after seeding. […] For time point 0, AsPC-1 cells were treated with a vehicle and lysed immediately. The final DMSO concentration in all experiments was 0.2%. Briefly, cells were washed twice with PBS and lysed in SDS lysis buffer (2% SDS in 40 mM Tris-HCl, pH 7.6), followed by sonication for 10 min (30 s on/30 s off) using a Bioruptor (Diagenode). […]
measurement_label: pEC50
Scale explanation: pEC50 corresponds to minus log10 of a concentration expressed in moles per litre.

Nc1nn2cc(F)cnc2c1C(=O)Nc1cncc(F)c1N1CCC(C(=O)N2CCN(C3COC3)CC2)CC1 = 8.72
C[C@@H]1COCCN1c1cc(C2([S@](C)(=N)=O)CC2)nc(-c2cc[nH]c3nccc2-3)n1 = 6.82

Next up:
Asked: Return reported pEC50; argument: "CNCc1ccc(-c2cc(-c3nc(-c4ccc(S(=O)(=O)C(C)C)cc4)cnc3N)on2)cc1"
Given back: 6.90

---

# Tested on: Colo-357
# assay_name: cells
# Design: ATPlite luminescence viability of PDAC cell lines, 11-dose single-agent curves, 4-parameter fit
# condition_notes: Homo sapiens, COLO357, 72 h, read-out: EC50 [nM]
Mark yes only for EC50 values smaller than 4000 nM; exact matches and larger values are no.

Solved cases (5 shown):
Cc1ccc(NC(=O)c2ccc(CN3CCN(C)CC3)cc2)cc1Nc1nc(-c2cccnc2)cs1 = no
C=CC(=O)Nc1cccc(Nc2nc(Nc3ccc(N4CCN(C(C)=O)CC4)cc3OC)ncc2C(F)(F)F)c1 = no
O=C(c1ccc(F)c(F)c1Nc1ccc(I)cc1F)N1CC(O)([C@@H]2CCCCN2)C1 = no
CC1(COc2ccc3c(c2)ncn3-c2ccc3cccc(N4CCC(N)CC4)c3n2)COC1 = no
COc1cc(Nc2ncc3c(n2)-c2ccc(Cl)cc2C(c2c(F)cccc2OC)=NC3)ccc1C(=O)O = yes

Asked: EC50 under 4000 nM? Item: "COc1cc(OC)c(/C=C/S(=O)(=O)Cc2ccc(OC)c(NCC(=O)O)c2)c(OC)c1"
Given back: yes

Asked: EC50 under 4000 nM? Item: "CC(C)NC[C@@H](C(=O)N1CCN(c2ncnc3c2[C@H](C)C[C@H]3O)CC1)c1ccc(Cl)cc1"
Given back: yes

Asked: EC50 under 4000 nM? Item: Cc1cc2c(F)c(Oc3ncnn4cc(OC[C@@H](C)OC(=O)[C@H](C)N)c(C)c34)ccc2[nH]1 [Brivanib alaninate]
Given back: yes

Asked: EC50 under 4000 nM? Item: "Cc1nc(Nc2ncc(C(=O)Nc3c(C)cccc3Cl)s2)cc(N2CCN(CCO)CC2)n1"
Given back: no

---

# Test system: PaTu-8988-T
# assay_name: cells
# Set-up: ATPlite luminescence viability of PDAC cell lines, 11-dose single-agent curves, 4-parameter fit
# condition_notes: Homo sapiens, PaTu 8988t, 72 h, read-out: EC50 [nM]
measurement_label: EC50 (nM)
Form entry: value (nM) — number only.

Asked: Return reported EC50; argument: "COc1cc2c(Oc3ccc4[nH]c(C)cc4c3F)ncnc2cc1OCCCN1CCCC1"
Given back: 6380

Asked: Return reported EC50; argument: O=C(/C=C\n1cnc(-c2cc(C(F)(F)F)cc(C(F)(F)F)c2)n1)NNc1cnccn1 [Selinexor]
Given back: 116

Asked: Return reported EC50; argument: "CCN(CC)CCNC(=O)c1c(C)[nH]c(/C=C2\C(=O)Nc3ccc(F)cc32)c1C"
Given back: 2190

Asked: Return reported EC50; argument: "CN(C)CCCOc1ccc(-c2ccc3ncc4c(c3c2)n(C2CCOCC2)c(=O)n4C)cn1"
Given back: 606
